The reported measurements were obtained from patent EP0003008A1.

Readout Label: IC50 (nM)
The figure you give is taken to be in nM; do not add the unit.

Form field, IC50 with cell-free influenza polymerase (Influenza A virus), item "O=C(O)P(=O)(O)O" : 500
